assay_system: human P2X2/3 receptor (Homo sapiens, UniProt P56373+Q9UBL9)
Construct: expressed in transfected cells; host or cells: CHO-K1
Sequence (P56373 1-397): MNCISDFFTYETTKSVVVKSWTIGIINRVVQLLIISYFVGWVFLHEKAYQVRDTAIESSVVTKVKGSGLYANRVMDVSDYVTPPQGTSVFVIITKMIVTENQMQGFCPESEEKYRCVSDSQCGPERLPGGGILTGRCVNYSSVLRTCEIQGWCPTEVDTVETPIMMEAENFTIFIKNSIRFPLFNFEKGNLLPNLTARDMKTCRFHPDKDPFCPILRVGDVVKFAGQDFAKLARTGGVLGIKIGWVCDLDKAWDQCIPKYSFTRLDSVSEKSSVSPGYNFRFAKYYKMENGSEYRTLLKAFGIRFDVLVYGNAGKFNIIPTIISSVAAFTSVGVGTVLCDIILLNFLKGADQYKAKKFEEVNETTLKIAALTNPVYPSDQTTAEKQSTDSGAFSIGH
Sequence (Q9UBL9 1-471): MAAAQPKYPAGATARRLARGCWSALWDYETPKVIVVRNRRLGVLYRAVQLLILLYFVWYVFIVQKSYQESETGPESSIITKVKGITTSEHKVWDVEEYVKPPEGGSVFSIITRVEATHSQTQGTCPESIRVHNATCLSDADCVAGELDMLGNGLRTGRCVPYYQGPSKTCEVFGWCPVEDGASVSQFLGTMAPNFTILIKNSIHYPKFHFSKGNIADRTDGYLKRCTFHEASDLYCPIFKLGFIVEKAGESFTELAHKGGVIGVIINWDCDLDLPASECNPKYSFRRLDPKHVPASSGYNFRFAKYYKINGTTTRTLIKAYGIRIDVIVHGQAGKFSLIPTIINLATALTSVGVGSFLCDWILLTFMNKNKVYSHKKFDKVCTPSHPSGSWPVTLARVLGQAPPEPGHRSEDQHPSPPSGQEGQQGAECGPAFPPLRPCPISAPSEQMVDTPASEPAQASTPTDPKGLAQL
experiment_description: Calcium fluorescence measurement: human P2X2/3 receptor activity inhibition (CHO-K1 cells, Fluo-8 NoWash, […])
Assay type: cell-based
measurement_parameters: ratio of IC50 of P2X2/3/ P2X3 receptors
parameter_measured: Selectivity

Known Selectivity results, listed for orientation:
                                   molecule  observed
0  CC(C)(CO)C1CN2C(=O)N(Cc3ccc(Cl)cc3)c3cc(N4CCOCC4)nnc3C2=N1 (stereo not drawn) [Example 17]      >722
1  CC(C)C1C(=O)N=C2c3ncc(N4CCC(O)CC4)cc3N(Cc3ccc(Cl)cc3)C(=O)N21 (stereo not drawn) [Example 26]      >260
2  CC(C)(O)C1CN2C(=O)N(Cc3ccc(Cl)cc3)c3cc(N4CCOCC4)nnc3C2=N1 (stereo not drawn) [Example 19]      >961

[in] Selectivity for COC(C)(C)c1nnc2c3ncc(N4CCOCC4)cc3n(Cc3ccc(Cl)cc3)c(=O)n12 [Example 32] ?
[out] >1000

[in] Same thing, different molecule: COc1ccc(Cn2c(=O)n3c(C(C)(C)C)nnc3c3ncc(N4CCNCC4)cc32)cc1 [Example 35]
[out] >90

[in] Same thing, different molecule: CC(C)C1CN2C(=O)N(Cc3ccc(Cl)cc3)c3cc(N4CCOCC4)cnc3C2=N1 (racemic) [Example 9]
[out] 44

[in] Same thing, different molecule: COC(C)(C)C1CN2C(=O)N(Cc3ccc(Cl)cc3)c3cc(N4CCOCC4)nnc3C2=N1 (stereo not drawn) [Example 18]
[out] >646

[in] Same thing, different molecule: COc1ccc(Cn2c(=O)n3c(C(C)(C)C)nnc3c3ncc(N4CCCCC4)cc32)cc1 [Example 38]
[out] >392

[in] Same thing, different molecule: CC(C)(C)C1C(=O)N=C2c3ncc(N4CCOCC4)cc3N(Cc3ccc(Cl)cc3)C(=O)N21 (stereo not drawn) [Example 21]
[out] 51

[in] Same thing, different molecule: CC(C)(C)c1nnc2c3nnc(N4CCC(O)CC4)cc3n(Cc3ccc(Cl)cc3)c(=O)n12 [Example 55]
[out] >1200

[in] Same thing, different molecule: CC(C)C1C(=O)N=C2c3ncc(N4CCOCC4)cc3N(Cc3ccc(Cl)cc3)C(=O)N21 (racemic) [Example 22]
[out] 510

[in] Same thing, different molecule: CC(C)(C)c1nnc2c3ncc(N4CCOCC4)cc3n(Cc3ccc(Cl)cc3)c(=O)n12 [Example 30]
[out] >466
